Biological target: recombinant human sEH (HsEH) (Homo sapiens, UniProt P34913)
Sequence (P34913 1-555): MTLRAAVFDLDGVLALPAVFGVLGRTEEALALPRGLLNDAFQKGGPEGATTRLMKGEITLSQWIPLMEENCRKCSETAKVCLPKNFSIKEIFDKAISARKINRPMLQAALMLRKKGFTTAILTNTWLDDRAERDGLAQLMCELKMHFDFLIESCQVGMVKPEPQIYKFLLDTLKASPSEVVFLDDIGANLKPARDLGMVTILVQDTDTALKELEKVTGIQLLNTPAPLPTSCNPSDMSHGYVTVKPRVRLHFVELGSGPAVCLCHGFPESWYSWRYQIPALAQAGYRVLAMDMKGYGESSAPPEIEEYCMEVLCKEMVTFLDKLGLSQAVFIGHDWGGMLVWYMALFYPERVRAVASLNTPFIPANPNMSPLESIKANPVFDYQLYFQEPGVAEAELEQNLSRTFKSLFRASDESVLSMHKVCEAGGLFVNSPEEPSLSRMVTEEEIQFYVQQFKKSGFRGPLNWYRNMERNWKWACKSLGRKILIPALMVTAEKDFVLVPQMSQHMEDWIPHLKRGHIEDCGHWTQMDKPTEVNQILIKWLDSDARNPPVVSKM
Experiment: biochemical
Settings: LLE = pIC50-cLogP

| COMPOUND | LLE (ligand lipophilicity efficiency) |
| --- | --- |
| C[C@]12C[C@@H]3C[C@](C)(C1)C[C@@](NC(=O)Nc1ccc(CN4CCCC(C(=O)N(CCO)CCO)C4)cc1F)(C3)C2 (stereo partly shown) [D5] | 6.879 |
| CCC(C)C(=O)N1CCCN(C(=O)C2CCCN(Cc3ccc(NC(=O)N[C@@]45C[C@@H]6C[C@@](C)(C[C@@](C)(C6)C4)C5)c(F)c3)C2)CC1 (stereo partly shown) [G2] | 4.986 |
| CC(O)CNC(=O)C1CCCN(C(=O)c2ccc(NC(=O)N[C@]34C[C@@H]5C[C@@](C)(C[C@@](C)(C5)C3)C4)c(F)c2)C1 (stereo partly shown) [B3] | 6.779 |
| C[C@]12C[C@@H]3C[C@](C)(C1)C[C@@](NC(=O)Nc1ccc(C(=O)NC4CCC(C(=O)N(CCO)CCO)CC4)cc1F)(C3)C2 (stereo partly shown) [C5] | 5.869 |
| C[C@]12C[C@@H]3C[C@](C)(C1)C[C@@](NC(=O)Nc1ccc(C(=O)N4CCCC(C(=O)N5CCN(CCO)CC5)C4)cc1F)(C3)C2 (stereo partly shown) [B4] | 6.516 |
| C[C@]12C[C@@H]3C[C@](C)(C1)C[C@@](NC(=O)Nc1ccc(CN4CCCC(C(=O)NC(CO)CO)C4)cc1F)(C3)C2 (stereo partly shown) [D7] | 7.008 |
| CCN(CC)C(=O)C1CCN(C(=O)c2ccc(NC(=O)N[C@@]34C[C@@H]5C[C@@](C)(C[C@@](C)(C5)C3)C4)c(F)c2)CC1 [A1] | 4.954 |
| C[C@]12C[C@@H]3C[C@](C)(C1)C[C@@](NC(=O)Nc1ccc(CN4CCC(C(N)=O)CC4)cc1F)(C3)C2 [E1] | 5.557 |
| CC(O)CNC(=O)C1CCN(Cc2ccc(NC(=O)N[C@@]34C[C@@H]5C[C@@](C)(C[C@@](C)(C5)C3)C4)c(F)c2)CC1 (stereo partly shown) [E2] | 3.267 |
| C[C@]12C[C@@H]3C[C@](C)(C1)C[C@@](NC(=O)Nc1ccc(C(=O)NC4CCC(C(=O)N5CCC(CCO)CC5)CC4)cc1F)(C3)C2 (stereo partly shown) [C2] | 3.655 |
| C[C@]12C[C@@H]3C[C@](C)(C1)C[C@@](NC(=O)Nc1ccc(C(=O)NC4CCC(C(=O)NCCO)CC4)cc1F)(C3)C2 (stereo partly shown) [C3] | 6.100 |
| C=C(C)C(=O)N1CCCN(C(=O)C2CCCN(Cc3ccc(NC(=O)N[C@@]45C[C@@H]6C[C@@](C)(C[C@@](C)(C6)C4)C5)c(F)c3)C2)CC1 (stereo partly shown) [G4] | 4.821 |
| C[C@]12C[C@@H]3C[C@](C)(C1)C[C@@](NC(=O)Nc1ccc(CN4CCC(C(=O)NC(CO)CO)CC4)cc1F)(C3)C2 [E3] | 5.090 |

###

molecular target: recombinant human sEH (HsEH) (Homo sapiens, UniProt P34913); assay: biochemical; details: LLE = pIC50-cLogP
Hi! Could you tag entries with LLE (ligand lipophilicity efficiency) below 6 as Satisfied, and those at or above as Not satisfied? Much appreciated.

| COMPOUND | ASSIGNED_LABEL |
| --- | --- |
| C[C@]12C[C@@H]3C[C@](C)(C1)C[C@@](NC(=O)Nc1ccc(C(=O)N4CCC(C(=O)NCCO)CC4)cc1F)(C3)C2 [A2] | Not satisfied |
| CCC(=O)N1CCC(CC(=O)N2CCCN(Cc3ccc(NC(=O)N[C@@]45C[C@@H]6C[C@@](C)(C[C@@](C)(C6)C4)C5)c(F)c3)CC2)CC1 [I2] | Satisfied |
| CN(C)CCN1CCC(CC(=O)N2CCCN(Cc3ccc(NC(=O)N[C@@]45C[C@@H]6C[C@@](C)(C[C@@](C)(C6)C4)C5)c(F)c3)CC2)CC1 [I7] | Satisfied |
| C[C@]12C[C@@H]3C[C@](C)(C1)C[C@@](NC(=O)Nc1ccc(CN4CCCC(C(=O)O)C4)cc1F)(C3)C2 (stereo partly drawn) [D] | Not satisfied |
| CCC(C)C(=O)N1CCC(CC(=O)N2CCCN(Cc3ccc(NC(=O)N[C@@]45C[C@@H]6C[C@@](C)(C[C@@](C)(C6)C4)C5)c(F)c3)CC2)CC1 (stereo partly drawn) [I3] | Satisfied |

###

Here the recorded LLE (ligand lipophilicity efficiency) is given for each entry.
target: recombinant human sEH (HsEH) (Homo sapiens); test: biochemical; conditions: LLE = pIC50-cLogP
METRIC: LLE (ligand lipophilicity efficiency)

| COMPOUND | VAL |
| --- | --- |
| CCN(CC)C(=O)C1CCCN(Cc2ccc(NC(=O)N[C@@]34C[C@@H]5C[C@@](C)(C[C@@](C)(C5)C3)C4)c(F)c2)C1 (stereo partly drawn) | 4.957 |
| CCN(CC)CCN1CCC(CC(=O)N2CCCN(Cc3ccc(NC(=O)N[C@@]45C[C@@H]6C[C@@](C)(C[C@@](C)(C6)C4)C5)c(F)c3)CC2)CC1 | 3.910 |
| COC(=O)N1CCC(CC(=O)N2CCCN(Cc3ccc(NC(=O)N[C@@]45C[C@@H]6C[C@@](C)(C[C@@](C)(C6)C4)C5)c(F)c3)CC2)CC1 | 5.125 |

###

biological target: recombinant human sEH (HsEH) (Homo sapiens); assay: biochemical; conditions: LLE = pIC50-cLogP
Listed next: entries and their corresponding LLE (ligand lipophilicity efficiency).
METRIC: LLE (ligand lipophilicity efficiency)

| COMPOUND | METRIC | VAL |
| --- | --- | --- |
| C[C@]12C[C@@H]3C[C@](C)(C1)C[C@@](NC(=O)Nc1ccc(C(=O)N4CCCC(C(=O)O)C4)cc1F)(C3)C2 (stereo partly shown) [A] | LLE (ligand lipophilicity efficiency) | 4.979 |
| CCC(=O)N1CCCN(C(=O)C2CCCN(C(=O)c3ccc(NC(=O)N[C@@]45C[C@@H]6C[C@@](C)(C[C@@](C)(C6)C4)C5)c(F)c3)C2)CC1 (stereo partly shown) [F2] | LLE (ligand lipophilicity efficiency) | 6.164 |
| C[C@]12C[C@@H]3C[C@](C)(C1)C[C@@](NC(=O)Nc1ccc(CN4CCCC(C(N)=O)C4)cc1F)(C3)C2 (stereo partly shown) [D1] | LLE (ligand lipophilicity efficiency) | 6.464 |
| C[C@]12C[C@@H]3C[C@](C)(C1)C[C@@](NC(=O)Nc1ccc(CN4CCCC(C(=O)N5CCN(CCO)CC5)C4)cc1F)(C3)C2 (stereo partly shown) [D9] | LLE (ligand lipophilicity efficiency) | 5.790 |
| CC(CN(C)C)N1CCC(CC(=O)N2CCCN(C(=O)c3ccc(NC(=O)N[C@@]45C[C@@H]6C[C@@](C)(C[C@@](C)(C6)C4)C5)c(F)c3)CC2)CC1 (stereo partly shown) [H4] | LLE (ligand lipophilicity efficiency) | 3.920 |
| C=CC(=O)N1CCCN(C(=O)C2CCCN(Cc3ccc(NC(=O)N[C@@]45C[C@@H]6C[C@@](C)(C[C@@](C)(C6)C4)C5)c(F)c3)C2)CC1 (stereo partly shown) [G3] | LLE (ligand lipophilicity efficiency) | 5.598 |
| CCN(CC)C(=O)C1CCCN(C(=O)c2ccc(NC(=O)N[C@]34C[C@@H]5C[C@@](C)(C[C@@](C)(C5)C3)C4)c(F)c2)C1 (stereo partly shown) [B1] | LLE (ligand lipophilicity efficiency) | 5.617 |
| CCC(=O)N1CCC(CC(=O)N2CCCN(C(=O)c3ccc(NC(=O)N[C@@]45C[C@@H]6C[C@@](C)(C[C@@](C)(C6)C4)C5)c(F)c3)CC2)CC1 [H1] | LLE (ligand lipophilicity efficiency) | 5.848 |
| C[C@]12C[C@@H]3C[C@](C)(C1)C[C@@](NC(=O)Nc1ccc(C(=O)NC4CCC(C(=O)NC(CO)CO)CC4)cc1F)(C3)C2 (stereo partly shown) [C7] | LLE (ligand lipophilicity efficiency) | 6.555 |
| C[C@]12C[C@@H]3C[C@](C)(C1)C[C@@](NC(=O)Nc1ccc(CN4CCCC(C(=O)NCCO)C4)cc1F)(C3)C2 (stereo partly shown) [D6] | LLE (ligand lipophilicity efficiency) | 6.145 |
| C=C(C)C(=O)N1CCC(CC(=O)N2CCCN(C(=O)c3ccc(NC(=O)N[C@@]45C[C@@H]6C[C@@](C)(C[C@@](C)(C6)C4)C5)cc3)CC2)CC1 [H3] | LLE (ligand lipophilicity efficiency) | 5.530 |
| C[C@]12C[C@@H]3C[C@](C)(C1)C[C@@](NC(=O)Nc1ccc(CN4CCCN(C(=O)CC5CCN(CCO)CC5)CC4)cc1F)(C3)C2 [I5] | LLE (ligand lipophilicity efficiency) | 4.937 |
| C[C@]12C[C@@H]3C[C@](C)(C1)C[C@@](NC(=O)Nc1ccc(CN4CCCC(C(=O)NC(CO)(CO)CO)C4)cc1F)(C3)C2 (stereo partly shown) [D8] | LLE (ligand lipophilicity efficiency) | 7.992 |
| C[C@]12C[C@@H]3C[C@](C)(C1)C[C@](NC(=O)Nc1ccc(C(=O)N4CCCC(C(=O)NCCO)C4)cc1F)(C3)C2 (stereo partly shown) [B2] | LLE (ligand lipophilicity efficiency) | 7.069 |
| C[C@]12C[C@@H]3C[C@](C)(C1)C[C@@](NC(=O)Nc1ccc(C(=O)NC4CCC(C(N)=O)CC4)cc1F)(C3)C2 (stereo partly shown) [C6] | LLE (ligand lipophilicity efficiency) | 5.746 |
| C[C@]12C[C@@H]3C[C@](C)(C1)C[C@@](NC(=O)Nc1ccc(CN4CCC(C(=O)N(CCO)CCO)CC4)cc1F)(C3)C2 [E5] | LLE (ligand lipophilicity efficiency) | 5.585 |
| C[C@]12C[C@@H]3C[C@](C)(C1)C[C@@](NC(=O)Nc1ccc(CN4CCC(C(=O)NC(CO)(CO)CO)CC4)cc1F)(C3)C2 [E4] | LLE (ligand lipophilicity efficiency) | 6.459 |
| CC(O)CNC(=O)C1CCN(C(=O)c2ccc(NC(=O)N[C@@]34C[C@@H]5C[C@@](C)(C[C@@](C)(C5)C3)C4)c(F)c2)CC1 (stereo partly shown) [A3] | LLE (ligand lipophilicity efficiency) | 5.708 |
| C[C@]12C[C@@H]3C[C@](C)(C1)C[C@@](NC(=O)Nc1ccc(C(=O)NC4CCC(C(=O)NC(CO)(CO)CO)CC4)cc1F)(C3)C2 (stereo partly shown) [C8] | LLE (ligand lipophilicity efficiency) | 7.653 |
| CC(=O)N1CCCN(C(=O)C2CCCN(C(=O)c3ccc(NC(=O)N[C@@]45C[C@@H]6C[C@@](C)(C[C@@](C)(C6)C4)C5)c(F)c3)C2)CC1 (stereo partly shown) [F1] | LLE (ligand lipophilicity efficiency) | 6.801 |
| CC(C)(C)OC(=O)N1CCN(CCNC(=O)C2CCC(NC(=O)c3ccc(NC(=O)N[C@@]45C[C@@H]6C[C@@](C)(C[C@@](C)(C6)C4)C5)c(F)c3)CC2)CC1 (stereo partly shown) [C1] | LLE (ligand lipophilicity efficiency) | 2.272 |
| CCC(C)C(=O)N1CCCN(C(=O)C2CCCN(C(=O)c3ccc(NC(=O)N[C@@]45C[C@@H]6C[C@@](C)(C[C@@](C)(C6)C4)C5)c(F)c3)C2)CC1 (stereo partly shown) [F3] | LLE (ligand lipophilicity efficiency) | 4.847 |
| CC(O)CNC(=O)C1CCC(NC(=O)c2ccc(NC(=O)N[C@@]34C[C@@H]5C[C@@](C)(C[C@@](C)(C5)C3)C4)c(F)c2)CC1 (stereo partly shown) [C4] | LLE (ligand lipophilicity efficiency) | 5.438 |
| CN(C)C(=O)C1CCCN(Cc2ccc(NC(=O)N[C@@]34C[C@@H]5C[C@@](C)(C[C@@](C)(C5)C3)C4)c(F)c2)C1 (stereo partly shown) [D2] | LLE (ligand lipophilicity efficiency) | 5.354 |
| CC(O)CNC(=O)C1CCCN(Cc2ccc(NC(=O)N[C@@]34C[C@@H]5C[C@@](C)(C[C@@](C)(C5)C3)C4)c(F)c2)C1 (stereo partly shown) [D4] | LLE (ligand lipophilicity efficiency) | 6.119 |
